# LE (ligand efficiency) listing for each entry below
target: CypD (Homo sapiens, UniProt P30405, K175I); assay: PPIase enzyme assay (chymotrypsin-coupled), CypD; settings: Supplementary Figure 1, NMR fragment hits
Sequence (P30405 44-207 K175I): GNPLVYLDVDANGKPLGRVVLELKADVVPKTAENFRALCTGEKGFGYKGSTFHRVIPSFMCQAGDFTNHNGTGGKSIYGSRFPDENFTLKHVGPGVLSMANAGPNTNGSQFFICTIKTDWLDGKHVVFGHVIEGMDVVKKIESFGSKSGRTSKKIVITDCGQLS

Sample answers from the record:
Please give the measured LE (ligand efficiency) for this compound: Nc1ccc(C(=O)O)cc1 < 0.42

Please give the measured LE (ligand efficiency) for this compound: Nc1ccc(S(=O)(=O)NC(=O)c2ccccc2)cc1 < 0.24

Please give the measured LE (ligand efficiency) for this compound: ON=Cc1ccccc1 < 0.46

More entries:
Please give the measured LE (ligand efficiency) for this compound: COC(=O)CS(=O)(=O)c1ccccc1 < 0.29

----------
molecular target: CYP2C9 (Homo sapiens); assay: Cytochrome P450 enzyme inhibition assay, CYP2C9; format: in vitro ADME; set-up: incubated with human hepatic microsomal fractions and NADPH; from tissue; host or cells: human hepatic microsomal fractions; settings: human hepatic microsomal fractions, up to 25 μM
Sequence (P11712 whole entry): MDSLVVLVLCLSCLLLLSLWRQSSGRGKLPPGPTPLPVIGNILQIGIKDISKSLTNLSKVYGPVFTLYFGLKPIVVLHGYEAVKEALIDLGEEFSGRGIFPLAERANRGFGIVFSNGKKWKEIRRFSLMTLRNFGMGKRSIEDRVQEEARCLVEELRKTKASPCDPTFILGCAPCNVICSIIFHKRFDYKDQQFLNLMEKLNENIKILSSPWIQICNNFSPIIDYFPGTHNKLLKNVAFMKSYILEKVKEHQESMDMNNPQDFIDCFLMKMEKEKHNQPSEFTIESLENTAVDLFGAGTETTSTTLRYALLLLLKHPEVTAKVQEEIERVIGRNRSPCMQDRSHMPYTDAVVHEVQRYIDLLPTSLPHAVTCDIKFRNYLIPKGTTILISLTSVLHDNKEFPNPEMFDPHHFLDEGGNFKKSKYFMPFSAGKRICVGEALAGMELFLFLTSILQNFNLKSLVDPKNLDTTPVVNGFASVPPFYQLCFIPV
MEASURED PARAMETER: IC50

Please give the measured IC50 for this compound: CSCCC(NC(=O)NCc1ccc(N)cc1)C(=O)N1CCCC1c1ccccc1SC.O=C(O)C(F)(F)F (stereo not shown) [Compound 30] > 25 µM

----------
biological target: cyclophilin PPIase activity; test: PPIase enzyme assay, cyclophilin not specified; details: compounds lacking the ester function; read-out: cyclophilin inhibition IC50
pIC50: −log10 of the molar value.
MEASURED PARAMETER: pIC50

Please give the measured pIC50 for this compound: Nc1ccc(CNC(=O)NCC(=O)N2CCCC2)cc1 [Compound 23] < 3.30

----------
# CC50 listing for each entry below
tested on: MRC5 cells; test: Cellular toxicity in MRC5 cells; conditions: read-out: MRC5 cells CC50; MRC5 cells

Sample answers from the record:
Please give the measured CC50 for this compound: CSCCC(NC(=O)NCc1ccc(N)cc1)C(=O)N1CCCC1c1ccccc1SC.O=C(O)C(F)(F)F (centres unmarked) [Compound 30] > 100 µM

Please give the measured CC50 for this compound: O=C(NC(=O)c1c(F)cccc1Cl)NC1c2ccccc2-c2ccccc21 [TMN-355, reference compound] 1.04 µM

Please give the measured CC50 for this compound: CSc1ccccc1C1CCCN1C(=O)C(NC(=O)NCc1ccc(N)cc1)c1ccccc1 (centres unmarked) [Compound 31] > 100 µM

More entries:
Please give the measured CC50 for this compound: CSc1ccccc1C1CCCN1C(=O)CNC(=O)NCc1ccc(N)cc1 (centres unmarked) [Compound 27] > 100 µM

Please give the measured CC50 for this compound: Nc1ccc(CNC(=O)NCC(=O)N2CCCC2c2ccccc2Br)cc1 (centres unmarked) [Compound 26] > 100 µM

----------
pIC50: −log10 of the molar value.
// values below are pIC50; system is CypA (Homo sapiens, UniProt P62937)
Sequence (P62937 whole entry): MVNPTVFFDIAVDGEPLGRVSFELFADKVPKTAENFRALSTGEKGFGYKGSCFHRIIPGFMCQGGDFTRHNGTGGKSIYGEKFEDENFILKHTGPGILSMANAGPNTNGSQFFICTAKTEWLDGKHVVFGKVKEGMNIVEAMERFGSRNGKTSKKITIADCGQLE

Sample answers from the record:
Observed pIC50 on CypA (Homo sapiens, UniProt P62937) for COc1ccccc1C1CCCN1C(=O)CNC(=O)NCc1ccc(N)cc1 (stereo not drawn) , please. 5.55

Observed pIC50 on CypA (Homo sapiens, UniProt P62937) for O=CN1CCCC1 , please. < 2.30

// switching to the query compound
Observed pIC50 on CypA (Homo sapiens, UniProt P62937) for Nc1ccc(CNC(=O)NCC(=O)N2CCCC2)cc1 , please. < 3.30

----------
molecular target: CypD (Homo sapiens, UniProt P30405, K175I); test: PPIase enzyme assay (chymotrypsin-coupled), CypD; conditions: 1 mM
MEASURED PARAMETER: % CypD inhibition (%I) at 1 mM (%)

Sample answers from the record:
Observed % CypD inhibition (%I) at 1 mM on CypD (Homo sapiens, UniProt P30405, K175I) for Nc1ccc(C(=O)O)cc1 , please. 32

Observed % CypD inhibition (%I) at 1 mM on CypD (Homo sapiens, UniProt P30405, K175I) for Nc1ccc(S(=O)(=O)NC(=O)c2ccccc2)cc1 , please. 39

Observed % CypD inhibition (%I) at 1 mM on CypD (Homo sapiens, UniProt P30405, K175I) for ON=Cc1ccccc1 , please. 32

A: COC(=O)CS(=O)(=O)c1ccccc1
B: O=S1(=O)CC=CC1
Of A and B , which carries the smaller reported % CypD inhibition (%I) at 1 mM figure? Indicate which entry you chose by stating its label. B
